# assay: chemical genetic growth profiling, strain panel (AID 1159580);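 further: tested at 20 µM; growth read once vehicle control cultures reached saturation at 30 °C; 1 = growth at the plate median or of vehicle wells; lower values mean less growth of the strain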
# applied_conditions: S. cerevisiae deletion strains, growth OD, locus YNR049C, strain mso1
About 2,000 (36%) of roughly 5,500 compounds were called active. Not shown: some 18% with an inconclusive outcome. No stated cut-off is given here; in the data, active means normalized growth mostly below about 0.91 (no sharp cut-off); inconclusive means no clear call, values can overlap the other calls; inactive means mostly above about 0.92. Some of the results follow.
Respond with a class label; see active, inactive

*Q* Outcome logged for C[N+](C)(C)CC(=O)[O-] in this assay:
*A* inactive

*Q* Outcome logged for COc1ccc(C(=O)c2ccccc2)c(O)c1 in this assay:
*A* active

*Q* Outcome logged for C/C=C(/C(=C/C)c1ccc(O)cc1)c1ccc(O)cc1 in this assay:
*A* inactive

*Q* Outcome logged for Cc1ccc(O)cc1 in this assay:
*A* inactive

*Q* Outcome logged for CC(C)[C@H](N)C(=O)OCCOCn1cnc2c(=O)[nH]c(N)nc21 in this assay:
*A* inactive

---

# assay: chemical genetic growth profiling, strain panel (AID 1159580);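 further: tested at 20 µM; growth read once vehicle control cultures reached saturation at 30 °C; 1 = growth at the plate median or of vehicle wells; lower values mean less growth of the strain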
# applied_conditions: S. cerevisiae deletion strains, growth OD, locus YPL256C, strain CLN2, active compounds read low
The campaign covered roughly 5,500 compounds. About 2,000 (36%) were called active. About 18% were inconclusive and are not listed. Some of the results follow.
recorded_endpoint: normalized growth

*Q* GET /values?readout=normalized growth&item= CC1=CC(=O)C(CCOCCC2=CC(=O)C(C)=CC2=O)=CC1=O
*A* 0.234 (active)

*Q* GET /values?readout=normalized growth&item= COc1ccc(C(=O)c2ccccc2O)c(O)c1
*A* 0.918 (inactive)

*Q* GET /values?readout=normalized growth&item= CCC1(C)CC(=O)NC1=O (centres undefined)
*A* 0.956 (inactive)

*Q* GET /values?readout=normalized growth&item= C[N+](C)(CCOc1ccccc1)Cc1ccccc1
*A* 0.812 (active)

*Q* GET /values?readout=normalized growth&item= c1ccc(CN(CC2=NCCN2)c2ccccc2)cc1
*A* 1.06 (inactive)

*Q* GET /values?readout=normalized growth&item= COc1ccc(C(=O)c2ccccc2)c(O)c1
*A* 0.818 (active)

*Q* GET /values?readout=normalized growth&item= CC1(C)C2CC[C@]3(C)C(C(=O)C=C4[C@H]5C[C@@](C)(C(=O)O)CC[C@]5(C)CC[C@]43C)[C@@]2(C)CC[C@@H]1O (some centres undefined)
*A* 1.03 (inactive)

*Q* GET /values?readout=normalized growth&item= C=CC(=O)N1CCc2cc([N+](=O)[O-])ccc21
*A* 0.299 (active)

*Q* GET /values?readout=normalized growth&item= COC(=O)C1[C@H]2C[C@H]3c4[nH]c5ccccc5c4CCN3C[C@@H]2CC[C@@H]1O (some centres undefined)
*A* 0.998 (inactive)

*Q* GET /values?readout=normalized growth&item= Cc1cc(OC(=O)N2CCCCC2)c(C(C)C)cc1[N+](C)(C)C
*A* 0.978 (inactive)

*Q* GET /values?readout=normalized growth&item= CCC(C)c1ccccc1NC(=O)c1cc2cccc([N+](=O)[O-])c2[nH]1 (centres undefined)
*A* 0.785 (active)

*Q* GET /values?readout=normalized growth&item= Cc1cc(C(C)(C)CC(C)(C)C)ccc1OCCOCC[N+](C)(C)Cc1ccccc1
*A* 0.105 (active)

*Q* GET /values?readout=normalized growth&item= CN1CCCC(n2nc(Cc3ccc(Cl)cc3)c3ccccc3c2=O)CC1 (centres undefined)
*A* 1.01 (inactive)

*Q* GET /values?readout=normalized growth&item= c1ccc(CC2=NCCN2)cc1
*A* 0.941 (inactive)

*Q* GET /values?readout=normalized growth&item= O=[N+]([O-])O[C@@H]1CO[C@H]2[C@@H]1OC[C@@H]2O
*A* 0.966 (inactive)

*Q* GET /values?readout=normalized growth&item= Cc1cc(SCc2[nH]nc3oc(=O)cc(C)c23)c(Cl)cc1Cl
*A* 1.08 (inactive)

*Q* GET /values?readout=normalized growth&item= O=[N+]([O-])O[C@H]1CO[C@H]2[C@@H]1OC[C@H]2O[N+](=O)[O-]
*A* 0.938 (inactive)

*Q* GET /values?readout=normalized growth&item= CC(C)(N=NC(C)(C)C(=N)N)C(=N)N
*A* 0.979 (inactive)

*Q* GET /values?readout=normalized growth&item= CCN(CC)C(=S)SSC(=S)N(CC)CC
*A* 0.13 (active)

*Q* GET /values?readout=normalized growth&item= CNc1ccccc1C(=O)N1CCc2c([nH]c3ccccc23)C1=O
*A* 1 (inactive)

*Q* GET /values?readout=normalized growth&item= CC(C(=O)O)c1ccc2c(c1)[nH]c1ccc(Cl)cc12 (centres undefined)
*A* 0.238 (active)

*Q* GET /values?readout=normalized growth&item= Cc1c(C(=O)N2CCCCC2)cc(-c2ccccc2)n1-c1ccccc1
*A* 0.8 (active)

*Q* GET /values?readout=normalized growth&item= Cc1ccccc1C(=O)N1CCc2c([nH]c3ccccc23)C1C(F)(F)F (centres undefined)
*A* 0.815 (active)

*Q* GET /values?readout=normalized growth&item= NC[C@@H]1O[C@H](O[C@@H]2[C@@H](CO)OC(O[C@@H]3[C@@H](O)[C@H](N)C[C@H](N)[C@H]3OC3O[C@H](CN)[C@@H](O)[C@H](O)[C@H]3N)[C@@H]2O)[C@H](N)[C@@H](O)[C@@H]1O (some centres undefined)
*A* 0.997 (inactive)

*Q* GET /values?readout=normalized growth&item= COC(=O)[C@@H]1C(O)CC[C@H]2CN3CCc4c([nH]c5ccccc45)[C@@H]3C[C@@H]21 (some centres undefined)
*A* 1 (inactive)

*Q* GET /values?readout=normalized growth&item= N#C/C(=C\c1ccccc1Sc1ccc(Cl)cc1)S(=O)(=O)c1ccccn1
*A* 0.926 (inactive)

*Q* GET /values?readout=normalized growth&item= CC(C)[C@H](N)C(=O)OCCOCn1cnc2c(=O)[nH]c(N)nc21
*A* 1.08 (inactive)

*Q* GET /values?readout=normalized growth&item= CC1(C)C2CC[C@]3(C)C(C(=O)C=C4[C@@H]5C[C@@](C)(C(=O)O)CC[C@]5(C)CC[C@]43C)[C@@]2(C)CC[C@@H]1OC(=O)CCC(=O)O (some centres undefined)
*A* 1.05 (inactive)

*Q* GET /values?readout=normalized growth&item= CC[C@H]1OC(=O)C[C@@H](O)[C@H](C)[C@@H](O[C@@H]2O[C@H](C)[C@@H](O[C@H]3C[C@@](C)(O)[C@@H](O)[C@H](C)O3)[C@H](N(C)C)[C@H]2O)[C@@H](CC=O)C[C@@H](C)C(=O)/C=C/C(C)=C/[C@@H]1CO[C@@H]1O[C@H](C)[C@@H](O)[C@@H](OC)[C@H]1OC
*A* 0.955 (inactive)

*Q* GET /values?readout=normalized growth&item= COc1cc2c3cc1Oc1c(OC)c(OC)cc4c1[C@@H](Cc1cccc(c1)Oc1ccc(c(O)c1)C[C@@H]3N(C)CC2)N(C)CC4
*A* 1.07 (inactive)

*Q* GET /values?readout=normalized growth&item= CCOC(=O)c1ncn2c1CN(C)C(=O)c1cc(F)ccc1-2
*A* 0.973 (inactive)

*Q* GET /values?readout=normalized growth&item= CCC1(c2ccccc2)C(=O)NCNC1=O
*A* 1 (inactive)

*Q* GET /values?readout=normalized growth&item= CC(C)=CCc1c(O)cc2oc(C)cc(=O)c2c1O
*A* 1.01 (inactive)

*Q* GET /values?readout=normalized growth&item= CC(C)(C)CC(C)(C)c1ccc(OCCOCC[N+](C)(C)Cc2ccccc2)cc1
*A* 0.347 (active)

*Q* GET /values?readout=normalized growth&item= COc1ccc2cc1Oc1ccc(cc1)C[C@H]1c3cc(c(OC)cc3CCN1C)Oc1c(OC)c(OC)cc3c1[C@H](C2)N(C)CC3
*A* 1.02 (inactive)

*Q* GET /values?readout=normalized growth&item= COc1ccc(C(C)=O)c(O)c1
*A* 0.957 (inactive)

*Q* GET /values?readout=normalized growth&item= Cn1cncc1S(=O)(=O)/C(C#N)=C/c1ccccc1Sc1ccc(Cl)cc1
*A* 0.73 (active)

*Q* GET /values?readout=normalized growth&item= NC(=O)N1c2ccccc2CC(=O)c2ccccc21
*A* 0.992 (inactive)

*Q* GET /values?readout=normalized growth&item= CC(C)CC1C(=O)N2CCC[C@H]2C2(O)O[C@](NC(=O)C3C=C4c5cccc6[nH]c(Br)c(c56)C[C@H]4N(C)C3)(C(C)C)C(=O)N12 (some centres undefined)
*A* 0.99 (inactive)

---

# assay: chemical genetic growth profiling, strain panel (AID 1159580);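 further: tested at 20 µM; growth read once vehicle control cultures reached saturation at 30 °C; 1 = growth at the plate median or of vehicle wells; lower values mean less growth of the strain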
# applied_conditions: S. cerevisiae deletion strains, growth OD, locus YDL108W, strain KIN28
In all, about 5,500 compounds went through this assay and about 2,000 (36%) were called active. Inconclusive results (about 18%) are left out. Cut-off read from the data, not from the text of the source: active = normalized growth mostly below about 0.91 (no sharp cut-off); inconclusive = no clear call, values can overlap the other calls; inactive = mostly above about 0.92. This is one part of the list.
Respond with a class label; see T = active, F = inactive

*Q* Outcome logged for Cn1c([N+](=O)[O-])cnc1/C=C(\C#N)C(=O)Nc1ccc(F)cc1 in this assay:
*A* F

*Q* Outcome logged for O=C(Nc1c(Br)c(C2CC2)nn1-c1ccccc1)C(Cl)(Cl)Cl in this assay:
*A* F

*Q* Outcome logged for Cc1c(Cl)cccc1NC(=S)N1CCCN(c2nc3ccc(Cl)cc3s2)CC1 in this assay:
*A* F

*Q* Outcome logged for C/C(=N/NC(N)=S)c1ccc(Oc2c(Cl)cncc2Cl)cc1 in this assay:
*A* F

*Q* Outcome logged for Cc1c(Cl)cccc1NC(=S)N1CCCN(c2ccc(C(F)(F)F)cc2[N+](=O)[O-])CC1 in this assay:
*A* F

*Q* Outcome logged for N#C/C(=C\c1ccccc1Sc1ccc(Cl)cc1)S(=O)(=O)c1ccccn1 in this assay:
*A* F

*Q* Outcome logged for NC(N)=Nc1nc(-c2cc(Cl)sc2Cl)cs1 in this assay:
*A* F

*Q* Outcome logged for Cn1cncc1S(=O)(=O)/C(C#N)=C/c1ccccc1Sc1ccc(Cl)cc1 in this assay:
*A* F

*Q* Outcome logged for N#Cc1c(Cl)c(Cl)c(Cl)c(Cl)c1C#N in this assay:
*A* T

*Q* Outcome logged for NCCCN=c1ccc2c3c1c(O)c1c(O)ccc(=O)c1c3[nH]n2CCNCCO in this assay:
*A* F

*Q* Outcome logged for O=C(CCN1CCCCC1)c1ccc(-c2ccccc2)cc1 in this assay:
*A* F

This collection of values is drawn from PubChem BioAssay AID1159580.
